Cited source for all entries: ChEMBL document CHEMBL4043246

target: Bromodomain-containing protein 4 (Homo sapiens, UniProt O60885); assay: Binding affinity to BRD4 BD1 (unknown origin)
quantity name: Kd (nM)
Entry rule: numbers only, all in nM.

Output Kd of "Cc1nnc2c(Nc3cccc(CNC(=O)C(C)C)c3)nc3ccccc3n12" 27

----------
assay: AUCt in rat at 5 mg/kg, po; format: ADME, organism-based; conditions: in vivo
quantity name: AUC(0-t) (ng·h/mL)
Entry rule: numbers only, all in ng·h/mL.

Output AUC(0-t) of "Cc1nnc2c(Nc3cccc(CNC(=O)OC(C)(C)C)c3)nc3ccccc3n12" 2110

----------
target: Bromodomain-containing protein 4 (Homo sapiens); assay: Inhibition of BRD4 BD1-BD2 (unknown origin) using tetraacetylated histone peptide as substrate after 2 hrs by alphascreen assay
Below, each entry is listed with its recorded IC50.
Entry rule: numbers only, all in µM.

- Cc1nnc2c(Nc3ccc(NC(=O)OC(C)(C)C)cc3)nc3ccccc3n12: 6.4

Output IC50 of "Cc1nnc2c(Nc3cccc(CN)c3)nc3ccccc3n12" 0.35

----------
system: Rattus norvegicus; experiment: Cmax in rat at 20 mg/kg, po; type: ADME, organism-based; parameters: dose 20 mg/kg, route oral; conditions: in vivo
quantity name: Cmax (ng/mL)
Entry rule: numbers only, all in ng/mL.

Output Cmax of "Cc1nnc2c(Nc3cccc(CNC(=O)C(C)C)c3)nc3ccccc3n12" 4600

----------
target: Bromodomain-containing protein 4 (Homo sapiens); assay: Inhibition of BRD4 BD1-BD2 (unknown origin) using tetraacetylated histone peptide as substrate after 2 hrs by alphascreen assay
pIC50: −log10 of the molar value.
quantity name: pIC50

• CC(C)(C)OC(=O)NCc1cccc(Nc2nc3ccccc3n3cnnc23)c1 = < 5.00
• Cc1nnc2c(Nc3cccc(CNC(=O)OC(C)(C)C)c3)nc3ccccc3n12 = 7.17 to 7.77

Let's switch to this compound now.
Quote pIC50 with test system Bromodomain-containing protein 4 (Homo sapiens) for "CCc1nnc2c(Nc3cccc(CNC(=O)OC(C)(C)C)c3)nc3ccccc3n12" < 5.00
